Molecular target: DRB1*1302 (Homo sapiens, UniProt P01903+P01911, A100E/A169T/K41T/L162R/M171V/P40S/Q125H/Q178H/Q39Y/Q99D/R42S/S66N/T262R/V115G/W38E/Y61H)
Construct: Epstein-Barr virus (EBV) transformed homozygous cell lines were used as sources of human HLA Class II molecules; endogenous in cells; host or cells: HO301 / H0301 (EBV-transformed homozygous B cell line)
Sequence (P01903 26-254, other chains not shown): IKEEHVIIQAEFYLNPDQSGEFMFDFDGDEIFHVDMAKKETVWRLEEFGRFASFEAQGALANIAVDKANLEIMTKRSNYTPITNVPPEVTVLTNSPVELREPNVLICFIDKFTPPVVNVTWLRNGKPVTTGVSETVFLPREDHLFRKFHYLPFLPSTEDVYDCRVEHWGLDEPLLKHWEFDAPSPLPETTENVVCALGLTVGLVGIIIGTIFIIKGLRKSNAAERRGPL
Assay: Class II peptide-binding assay DRB1*1302 (DR6w19)
Details: known HLA-DR and DQ restricted epitopes, Table 6
pIC50: −log10 of the molar value. Ends that are not written are not given here.

| construct sequence | pIC50 |
| --- | --- |
| FNNFTVSFWLRVPKVSASHLEQY | 5.20 |
| YSGPLKAEIAQRLEDV | 6.11 |

---

Biological target: DRB1*0404 (Homo sapiens, UniProt P01903+P01911, A100R/A169T/F76Y/I96L/K127E/L162R/M171V/N62H/P40V/Q125Y/R42H/S133A/S149N/S66Y/V209L/W38E)
Construct: Epstein-Barr virus (EBV) transformed homozygous cell lines were used as sources of human HLA Class II molecules; endogenous in cells; host or cells: BIN40 (EBV-transformed homozygous B cell line)
Assay: Class II peptide-binding assay DRB1*0404 (DR4w14)
Details: known HLA-DR and DQ restricted epitopes, Table 6
pIC50: −log10 of the molar value. Ends that are not written are not given here.

| construct sequence | bound operator | pIC50 |
| --- | --- | --- |
| FNNFTVSFWLRVPKVSASHLEQY | = | 5.34 |
| YSGPLKAEIAQRLEDV | < | 4.70 |

---

Below, each entry is listed with its recorded IC50.
Target: DRB1*0405 (Homo sapiens, UniProt P01903+P01911, A100R/A169T/D86S/F76Y/I96L/K127E/L162R/M171V/N62H/P40V/Q125Y/R42H/S133A/S149N/S66Y/V115G/V209L/W38E)
Construct: Epstein-Barr virus (EBV) transformed homozygous cell lines were used as sources of human HLA Class II molecules; endogenous in cells; host or cells: KT3 (EBV-transformed homozygous B cell line)
Assay: Class II peptide-binding assay DRB1*0405 (DR4w15)
Settings: known HLA-DR and DQ restricted epitopes, Table 6
experimental readout: IC50 (nM)

| chemical structure | experimental readout | bound operator | endpoint result |
| --- | --- | --- | --- |
| CC[C@H](C)[C@H](NC(=O)[C@H](CO)NC(=O)[C@H](CCC(=O)O)NC(=O)[C@H](CC(C)C)NC(=O)[C@H](C)NC(=O)[C@@H](N)CC(=O)O)C(=O)N[C@@H](CCSC)C(=O)N[C@H](C(=O)N[C@H](C(=O)N[C@@H](CCCCN)C(=O)N[C@@H](CO)C(=O)N[C@H](C(=O)N[C@@H](CO)C(=O)N[C@@H](Cc1ccccc1)C(=O)N[C@@H](CCCNC(=N)N)C(=O)O)C(C)C)[C@@H](C)O)[C@@H](C)O | IC50 | = | 566 |
| CC[C@H](C)[C@H](NC(=O)[C@@H](NC(=O)[C@H](CCCCN)NC(=O)[C@H](CCC(=O)O)NC(=O)[C@H](CC(C)C)NC(=O)[C@H](CC(C)C)NC(=O)[C@@H]1CCCN1C(=O)[C@H](CC(C)C)NC(=O)[C@@H](N)CC(C)C)C(C)C)C(=O)NCC(=O)N[C@@H](C)C(=O)NCC(=O)N[C@@H](CCCCN)C(=O)N1CCC[C@H]1C(=O)N[C@@H](CC(C)C)C(=O)O | IC50 | = | 5250 |
| CC(C)C[C@H](NC(=O)[C@H](Cc1c[nH]cn1)NC(=O)[C@H](CC(=O)O)NC(=O)[C@H](CC(C)C)NC(=O)[C@@H](NC(=O)[C@H](CC(N)=O)NC(=O)[C@@H](N)CC(=O)O)C(C)C)C(=O)N[C@H](C(=O)NCC(=O)N[C@@H](CCCNC(=N)N)C(=O)N[C@@H](CO)C(=O)N[C@@H](CS)C(=O)O)[C@@H](C)O | IC50 | > | 10000 |
| CC[C@H](C)[C@H](NC(=O)[C@H](CCCNC(=N)N)NC(=O)[C@H](Cc1c[nH]c2ccccc12)NC(=O)[C@@H](NC(=O)[C@H](C)NC(=O)CNC(=O)[C@H](Cc1c[nH]c2ccccc12)NC(=O)[C@H](CO)NC(=O)[C@@H](N)CCC(=O)O)C(C)C)C(=O)N[C@@H](CC(=O)O)C(=O)N[C@H](C(=O)N1CCC[C@H]1C(=O)N[C@@H](CC(=O)O)C(=O)N[C@@H](CCCCN)C(=O)N[C@@H](CC(C)C)C(=O)N[C@H](C(=O)NCC(=O)N1CCC[C@H]1C(=O)N[C@@H](Cc1ccccc1)C(=O)N[C@H](C(=O)O)[C@@H](C)O)[C@@H](C)O)[C@@H](C)O | IC50 | = | 1730 |

Reference for the values: patent US20070184519A1
